Ref: the supplement of paper PMC12667976

B1: library; numbered along this chain (parent)
chain: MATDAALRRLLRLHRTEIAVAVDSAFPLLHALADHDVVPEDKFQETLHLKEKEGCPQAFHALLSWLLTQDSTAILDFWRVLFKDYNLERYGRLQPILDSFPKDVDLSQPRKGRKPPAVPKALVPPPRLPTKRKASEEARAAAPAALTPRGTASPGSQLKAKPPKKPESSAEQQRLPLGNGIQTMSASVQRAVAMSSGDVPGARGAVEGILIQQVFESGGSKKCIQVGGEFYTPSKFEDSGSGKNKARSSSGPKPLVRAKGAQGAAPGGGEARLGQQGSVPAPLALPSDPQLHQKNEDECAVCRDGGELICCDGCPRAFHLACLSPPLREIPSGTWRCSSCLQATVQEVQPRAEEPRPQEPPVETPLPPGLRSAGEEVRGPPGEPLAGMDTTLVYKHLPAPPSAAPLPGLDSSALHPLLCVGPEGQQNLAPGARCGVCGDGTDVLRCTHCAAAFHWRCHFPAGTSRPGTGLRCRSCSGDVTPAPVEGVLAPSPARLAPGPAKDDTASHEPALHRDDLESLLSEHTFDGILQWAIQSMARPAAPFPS

- Variants of: B1
- assay_name: AIRE transcriptional activation functional score (insulin promoter-GFP; nonsense median 0, synonymous median 1) (normalised score); higher = higher AIRE activity (more reporter activation)
- measurement_conditions: with insulin promoter-GFP reporter in HEK293
Using AIRE transcriptional activation functional score as the sorting value, the categories are A: < 0.3; B: ≥ 0.3 and < 1; C: ≥ 1

T147F :: C
H292Y :: B
E354W :: C
Q212K :: C
V104C :: B
P126E :: B
D98C :: A
M194D :: A
N244M :: A
T68Y :: B
Q213T :: B
C299S :: B
E383C :: C
E375Q :: C
P416H :: A
D439A :: C
F215M :: A
V256R :: A
S195R :: C
V37M :: A
C302L :: B
R8P :: A
E423S :: C
C340Q :: C
P490Q :: B
G251V :: C
Y394N :: B
G424T :: C
E45F :: B
G424L :: C
V118E :: C
V443I :: B
L66F :: A
E229D :: B
A121Q :: A
K83P :: A
H448F :: B
E51I :: A
R139C :: B
